Value source: patent US20140135270A1

Reported IC50 values for the following compounds.
- measurement-target: His-BIR2 (124-240/C202A/C213G) (Homo sapiens, UniProt P98170, C202A/C213G)
- Construct: additions of His-BIR2 (124-240/C202A/C213G), Biotinylated SMAC peptide
- Sequence (P98170 124-240 C202A/C213G): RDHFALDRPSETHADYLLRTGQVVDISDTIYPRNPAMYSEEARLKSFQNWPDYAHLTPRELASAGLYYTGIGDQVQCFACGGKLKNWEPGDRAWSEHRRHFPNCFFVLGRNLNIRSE
- protocol-details: XIAP-BIR2/SMAC Peptide AlphaScreen Assay
- Format: binding
- cond: biotinylated SMAC peptide, read-out: BIR2 ALPHA IC50
Express the result in nM but write the number alone.

Please review the entries below; each comes with its answer.
compound	IC50 / nM
CN[C@@H](C)C(=O)N[C@H](C(=O)N1C[C@@H]2C[C@H]1C(=O)N[C@@H](Cc1ccc3ccccc3c1)C(=O)N[C@H](C(=O)O)COC/C=C/CO[C@H]1C[C@@H](C(=O)N[C@@H](Cc3ccc4ccccc4c3)C(=O)N[C@H](C(=O)O)CC(=O)N2)N(C(=O)[C@@H](NC(=O)[C@H](C)NC)C(C)(C)C)C1)C(C)(C)C	74.6
CNC(C)C(=O)NC(C(=O)N1CC2CC1C(=O)NC(Cc1ccc3ccccc3c1)C(=O)NC(C(=O)O)Cc1ccc(cc1)OCC=CCOC1CC(C(=O)NC(Cc3ccc4ccccc4c3)C(=O)NC(C(=O)O)CCCC(=O)N2)N(C(=O)C(NC(=O)C(C)NC)C(C)(C)C)C1)C(C)(C)C (stereo not drawn)	38.8

Let us examine a further case.
query: Provide the documented IC50 with His-BIR2 (124-240/C202A/C213G) (Homo sapiens, UniProt P98170, C202A/C213G) as the system for CNC(C)C(=O)NC(C(=O)N1CC2CC1C(=O)NC(Cc1ccc3ccccc3c1)C(=O)NC(C(=O)O)Cc1ccc(cc1)OCC=CCOC1CC(C(=O)NC(Cc3ccc4ccccc4c3)C(=O)NC(C(=O)O)CCC(=O)N2)N(C(=O)C(NC(=O)C(C)NC)C(C)(C)C)C1)C(C)(C)C (stereo not drawn)
result: 21.6

====

- measurement-target: His-BIR3 (241-356, XIAP) (Homo sapiens)
- Construct: additions of His-BIR3 (241-356, XIAP), fluorescein labeled SMAC peptide
- protocol-details: XIAP-BIR3/SMAC Homogeneous Time Resolved Fluorescence (HTRF) Assay
- cond: fluorescein labeled SMAC peptide
Reported pIC50 values for the following molecules.
# pIC50: negative log10 of molar concentration; output just the value

molecule	measurement-target	pIC50
CN[C@@H](C)C(=O)N[C@H](C(=O)N1C[C@@H]2C[C@H]1C(=O)N[C@@H](Cc1ccc3ccccc3c1)C(=O)N[C@H](C(=O)O)Cc1ccc(cc1)OCc1cn(nn1)[C@H]1C[C@@H](C(=O)N[C@@H](Cc3ccc4ccccc4c3)C(=O)N[C@H](C(=O)NS(=O)(=O)C3CC3)Cc3ccc(cc3)OCCCCO2)N(C(=O)[C@@H](NC(=O)[C@H](C)NC)C(C)(C)C)C1)C(C)(C)C [Example 123]	His-BIR3 (241-356, XIAP) (Homo sapiens)	8.11
CN[C@@H](C)C(=O)N[C@H](C(=O)N[C@H]1C/C=C\CC[C@@H](C(=O)O)NC(=O)[C@H](Cc2ccc3ccccc3c2)NC(=O)[C@@H]2CN(CCN2C(=O)[C@@H](NC(=O)[C@H](C)NC)C(C)(C)C)C(=O)CNC(=O)CC[C@@H](C(=O)O)NC(=O)[C@H](Cc2ccc3ccccc3c2)NC1=O)C(C)(C)C [Example 76]	His-BIR3 (241-356, XIAP) (Homo sapiens)	6.53
CN[C@@H](C)C(=O)N[C@H](C(=O)N1CC[C@@H]2OC/C=C/CC[C@@H](C(=O)O)NC(=O)[C@H](Cc3ccc4ccccc4c3)NC(=O)[C@@H]3[C@H](CCN3C(=O)[C@@H](NC(=O)[C@H](C)NC)C(C)(C)C)OCc3cn(nn3)[C@H](C(=O)NS(C)(=O)=O)CCCNC(=O)[C@H](Cc3ccc4ccccc4c3)NC(=O)[C@H]21)C(C)(C)C [Example 19]	His-BIR3 (241-356, XIAP) (Homo sapiens)	7.45

query: Entry under review: CN[C@@H](C)C(=O)N[C@H](C(=O)N1CCC2[C@H]1C(=O)N[C@@H](Cc1ccc3ccccc3c1)C(=O)N[C@H](C(=O)O)Cc1ccc(cc1)OC/C=C/CO[C@H]1C[C@@H](C(=O)N[C@@H](Cc3ccc4ccccc4c3)C(=O)N[C@H](C(=O)O)Cc3ccc(cc3)OCc3cn2nn3)N(C(=O)[C@@H](NC(=O)[C@H](C)NC)C(C)(C)C)C1)C(C)(C)C (stereo partly drawn) [Example 13] . Reported pIC50?
result: 8.27

query: Entry under review: CN[C@@H](C)C(=O)N[C@@H](Cc1c[nH]cn1)C(=O)N1C[C@@H]2C[C@H]1C(=O)N[C@@H](Cc1ccc3ccccc3c1)C(=O)N[C@H](C(=O)O)CCC(=O)N[C@H]1C[C@@H](C(=O)N[C@@H](Cc3ccc4ccccc4c3)C(=O)N[C@H](C(=O)O)Cc3ccc(cc3)OC/C=C/CO2)N(C(=O)[C@@H](NC(=O)[C@H](C)NC)C(C)(C)C)C1 [Example 59] . Reported pIC50?
result: 6.88

query: Entry under review: CN[C@@H](C)C(=O)N[C@H](C(=O)N1C[C@@H]2C[C@H]1C(=O)N[C@@H](Cc1ccc3ccccc3c1)C(=O)N[C@H](C(=O)O)Cc1ccc(cc1)OCCCCO[C@H]1C[C@@H](C(=O)N[C@@H](Cc3ccc4ccccc4c3)C(=O)N[C@H](C(=O)NS(=O)(=O)C3CC3)Cc3ccc(cc3)OCc3cn2nn3)N(C(=O)[C@@H](NC(=O)[C@H](C)NC)C(C)(C)C)C1)C(C)(C)C [Example 120] . Reported pIC50?
result: 7.38

====

- measurement-target: His-BIR3 (241-356, XIAP) (Homo sapiens, UniProt P98170)
- Construct: additions of His-BIR3 (241-356, XIAP), fluorescein labeled SMAC peptide
- Sequence (P98170 241-356): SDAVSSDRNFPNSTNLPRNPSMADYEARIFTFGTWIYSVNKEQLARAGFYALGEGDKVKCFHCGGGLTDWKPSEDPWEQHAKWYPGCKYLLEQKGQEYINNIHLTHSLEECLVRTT
- protocol-details: XIAP-BIR3/SMAC Homogeneous Time Resolved Fluorescence (HTRF) Assay
- cond: fluorescein labeled SMAC peptide
measurement-kind: pIC50
# pIC50: negative log10 of molar concentration; output just the value

Please review the entries below; each comes with its answer.
compound	pIC50
CN[C@@H](C)C(=O)N[C@H](C(=O)N1C[C@@H]2C[C@H]1C(=O)N[C@@H](Cc1ccc3ccccc3c1)C(=O)N[C@H](C(=O)O)Cc1ccc(cc1)OCCCC[C@H]1C[C@@H](C(=O)N[C@@H](Cc3ccc4ccccc4c3)C(=O)N[C@H](C(=O)NS(=O)(=O)C3CC3)Cc3ccc(cc3)OCc3cn2nn3)N(C(=O)[C@@H](NC(=O)[C@H](C)NC)C(C)(C)C)C1)C(C)(C)C [Example 87]	8.62
CN[C@@H](C)C(=O)NC(C(=O)N1C[C@H]2CCCCOc3ccc(cc3)C[C@@H](c3n[nH]c(=O)o3)NC(=O)C(Cc3ccc4ccccc4c3)NC(=O)[C@@H]3C[C@@H](CN3C(=O)[C@@H](NC(=O)[C@H](C)NC)C(C)(C)C)n3cc(nn3)COc3ccc(cc3)C[C@@H](C(=O)O)NC(=O)[C@H](Cc3ccc4ccccc4c3)NC(=O)[C@@H]1C2)C(C)(C)C (stereo partly drawn) [Example 92]	8.54

Let us examine a further case.
query: Entry under review: CN[C@@H](C)C(=O)N[C@H](C(=O)N1C[C@@H]2C[C@H]1C(=O)N[C@@H](Cc1ccc3ccccc3c1)C(=O)N[C@H](C(=O)O)Cc1ccc(cc1)OCCCCO[C@H]1C[C@@H](C(=O)N[C@@H](Cc3ccc4ccccc4c3)C(=O)N[C@H](C(=O)NS(=O)(=O)c3ccccn3)Cc3ccc(cc3)OCc3cn2nn3)N(C(=O)[C@@H](NC(=O)[C@H](C)NC)C(C)(C)C)C1)C(C)(C)C [Example 125] . Reported pIC50?
result: 8.43

====

- measurement-target: His-BIR3 (241-356, XIAP) (Homo sapiens)
- Construct: additions of His-BIR3 (241-356, XIAP), fluorescein labeled SMAC peptide
- protocol-details: XIAP-BIR3/SMAC Homogeneous Time Resolved Fluorescence (HTRF) Assay
- cond: fluorescein labeled SMAC peptide
Reported pIC50 values for the following compounds.
# pIC50: negative log10 of molar concentration; output just the value

compound	test-result
CN[C@@H](C)C(=O)N[C@H](C(=O)N1C[C@@H]2C[C@H]1C(=O)NC(Cc1ccc3ccccc3c1)C(=O)N[C@H](C(=O)O)Cc1ccc(cc1)OCCCC[C@H]1C[C@@H](C(=O)N[C@@H](Cc3ccc4ccccc4c3)C(=O)N[C@H](c3nnn[nH]3)Cc3ccc(cc3)OCc3cn2nn3)N(C(=O)[C@@H](NC(=O)[C@H](C)NC)C(C)(C)C)C1)C(C)(C)C (some centres unmarked)	8.62

Let us examine a further case.
query: Entry under review: CN[C@@H](C)C(=O)N[C@@H](C)C(=O)N1C[C@@H]2C[C@H]1C(=O)N[C@@H](Cc1ccc3ccccc3c1)C(=O)N[C@H](C(=O)O)CCC(=O)N[C@H]1C[C@@H](C(=O)N[C@@H](Cc3ccc4ccccc4c3)C(=O)N[C@H](C(=O)O)Cc3ccc(cc3)OC/C=C/CO2)N(C(=O)[C@@H](NC(=O)[C@H](C)NC)C(C)(C)C)C1 . Reported pIC50?
result: 6.60
